study target: Prothrombin (Homo sapiens)
readout kind: IC50
# number then unit; no other words

Could you share which IC50 value was measured for N=C(N)Nc1ccc(C(=O)Oc2ccc(CC(=O)O)cc2)cc1 ?
108 µM

----------
// each record: one item and its IC50 for Kallikrein-1 (Homo sapiens)

>>> val("N=C(N)Nc1ccc(C(=O)Oc2ccc(CC(=O)O)cc2)cc1")
"> 100 µM"

// switching to the query compound
Could you share which IC50 value was measured for CN(C)C(=O)COC(=O)Cc1ccc(OC(=O)c2ccc(NC(=N)N)cc2)cc1.CS(=O)(=O)O [CAMOSTAT MESILATE] ?
34.1 µM

----------
// each record: one item and its IC50 for Serine protease 1 (Homo sapiens, UniProt P07477)
Give bare numbers, in nM.

>>> val("CN(C)C(=O)COC(=O)Cc1ccc(OC(=O)c2ccc(NC(=N)N)cc2)cc1.CS(=O)(=O)O [CAMOSTAT MESILATE]")
50.6

// switching to the query compound
Could you share which IC50 value was measured for N=C(N)Nc1ccc(C(=O)Oc2ccc(CC(=O)O)cc2)cc1 ?
55

----------
I'd appreciate it if you could supply half-life values for the items below.
assay: Half-life in dog small intestine homogenate.
Type: ADME, organism-based, Canis lupus familiaris

>>> val("C=CCN(CC(=O)OCC)C(=O)/C(C)=C/c1ccc(C(=O)Oc2ccc(C(=N)N)cc2)cc1.CS(=O)(=O)O")
"> 60 min"

// switching to the query molecule
Could you share which half-life value was measured for C=CCN(CC(=O)O)C(=O)/C(C)=C/c1ccc(C(=O)Oc2ccc(C(=N)N)cc2)cc1.CS(=O)(=O)O ?
> 60 min

----------
study target: Plasma kallikrein (Homo sapiens)
Sequence (P03952 whole entry, looked up): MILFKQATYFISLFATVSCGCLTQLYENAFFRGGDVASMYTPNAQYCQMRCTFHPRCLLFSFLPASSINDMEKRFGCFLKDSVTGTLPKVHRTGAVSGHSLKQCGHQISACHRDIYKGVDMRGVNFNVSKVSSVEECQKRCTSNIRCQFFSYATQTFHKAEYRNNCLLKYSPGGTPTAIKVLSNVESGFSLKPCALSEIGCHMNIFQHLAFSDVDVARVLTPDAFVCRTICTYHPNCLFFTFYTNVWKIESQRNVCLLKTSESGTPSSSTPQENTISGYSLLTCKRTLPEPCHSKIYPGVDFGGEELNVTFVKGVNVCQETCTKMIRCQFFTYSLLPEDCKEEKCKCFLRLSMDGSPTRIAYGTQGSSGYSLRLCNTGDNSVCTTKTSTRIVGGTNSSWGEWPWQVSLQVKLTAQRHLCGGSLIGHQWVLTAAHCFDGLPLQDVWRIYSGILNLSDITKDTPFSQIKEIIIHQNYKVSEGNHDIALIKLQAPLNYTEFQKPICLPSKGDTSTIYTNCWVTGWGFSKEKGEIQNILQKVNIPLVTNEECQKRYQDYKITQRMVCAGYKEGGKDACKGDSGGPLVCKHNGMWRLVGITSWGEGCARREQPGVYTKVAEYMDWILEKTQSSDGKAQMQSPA
assay: Concentration required to inhibit enzymatic cleavage of the chromogenic substrate (H-D-Pro-Phe-Arg-pNA) for plasma kallikrein in vitro.
readout kind: pIC50
Give bare numbers, as −log10 of the molar value.

Look over these answered cases.
>>> val("N=C(N)Nc1ccc(C(=O)Oc2ccc(CC(=O)O)cc2)cc1")
5.63
>>> val("CN(C)C(=O)COC(=O)Cc1ccc(OC(=O)c2ccc(NC(=N)N)cc2)cc1.CS(=O)(=O)O [CAMOSTAT MESILATE]")
5.83
>>> val("C=CCN(CC(=O)OCC)C(=O)/C(C)=C/c1ccc(C(=O)Oc2ccc(C(=N)N)cc2)cc1.CS(=O)(=O)O")
6.72

Return pIC50 measured with Plasma kallikrein (Homo sapiens) given this compound: C=CCN(CC(=O)O)C(=O)/C(C)=C/c1ccc(C(=O)Oc2ccc(C(=N)N)cc2)cc1.CS(=O)(=O)O
7.02

----------
study target: Plasminogen (Rattus norvegicus, UniProt Q01177)
Sequence (Q01177 97-581 limits assumed): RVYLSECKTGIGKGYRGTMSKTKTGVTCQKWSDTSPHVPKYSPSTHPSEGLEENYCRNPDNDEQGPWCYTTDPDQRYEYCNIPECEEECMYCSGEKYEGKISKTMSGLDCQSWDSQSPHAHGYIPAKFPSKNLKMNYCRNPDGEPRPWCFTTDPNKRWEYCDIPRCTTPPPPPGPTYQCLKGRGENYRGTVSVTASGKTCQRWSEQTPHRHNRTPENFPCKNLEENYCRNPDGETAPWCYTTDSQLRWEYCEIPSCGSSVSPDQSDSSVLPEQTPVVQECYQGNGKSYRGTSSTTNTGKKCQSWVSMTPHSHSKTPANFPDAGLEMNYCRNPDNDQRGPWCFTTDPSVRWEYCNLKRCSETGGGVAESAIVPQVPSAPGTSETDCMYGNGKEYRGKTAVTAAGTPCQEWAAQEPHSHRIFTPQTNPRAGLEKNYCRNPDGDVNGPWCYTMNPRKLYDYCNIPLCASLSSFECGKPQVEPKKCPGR
Sequence (Q01177 582-812 limits assumed): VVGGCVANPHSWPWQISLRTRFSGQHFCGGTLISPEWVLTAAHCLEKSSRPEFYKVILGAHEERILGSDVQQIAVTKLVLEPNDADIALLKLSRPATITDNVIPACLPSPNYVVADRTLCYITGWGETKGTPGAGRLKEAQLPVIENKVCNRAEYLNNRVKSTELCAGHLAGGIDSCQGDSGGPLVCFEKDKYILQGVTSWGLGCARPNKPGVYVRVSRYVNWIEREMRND
I'd appreciate it if you could supply IC50 values for the items below.
Answers are plain numbers, in nM.

>>> val("CN(C)C(=O)COC(=O)Cc1ccc(OC(=O)c2ccc(NC(=N)N)cc2)cc1.CS(=O)(=O)O [CAMOSTAT MESILATE]")
2620

// switching to the query compound
Could you share which IC50 value was measured for C=CCN(CC(=O)OCC)C(=O)/C(C)=C/c1ccc(C(=O)Oc2ccc(C(=N)N)cc2)cc1.CS(=O)(=O)O ?
873

----------
// each record: one item and its IC50 for Chymotrypsinogen A (Bos taurus)

Look over these answered cases.
>>> val("C=CCN(CC(=O)OCC)C(=O)/C(C)=C/c1ccc(C(=O)Oc2ccc(C(=N)N)cc2)cc1.CS(=O)(=O)O")
"> 100 µM"
>>> val("N=C(N)Nc1ccc(C(=O)Oc2ccc(CC(=O)O)cc2)cc1")
"> 100 µM"

Could you share which IC50 value was measured for CN(C)C(=O)COC(=O)Cc1ccc(OC(=O)c2ccc(NC(=N)N)cc2)cc1.CS(=O)(=O)O [CAMOSTAT MESILATE] ?
> 100 µM

----------
assay: Area under the plasma concentration was determined in fasted Beagle dogs after peroral administration of 100 mg/kg
Assay type: ADME, organism-based, Canis lupus familiaris
Design: dose 100 mg/kg, route oral
recorded conditions: dog, po
readout kind: AUC
# number then unit; no other words

Could you share which AUC value was measured for C=CCN(CC(=O)O)C(=O)/C(C)=C/c1ccc(C(=O)Oc2ccc(C(=N)N)cc2)cc1.CS(=O)(=O)O ?
27000 ng·h/mL

----------
assay: Half-life in dog liver homogenate.
Format: ADME, organism-based, Canis lupus familiaris
readout kind: half-life

>>> val("C=CCN(CC(=O)OCC)C(=O)/C(C)=C/c1ccc(C(=O)Oc2ccc(C(=N)N)cc2)cc1.CS(=O)(=O)O")
"< 1 min"

Could you share which half-life value was measured for C=CCN(CC(=O)O)C(=O)/C(C)=C/c1ccc(C(=O)Oc2ccc(C(=N)N)cc2)cc1.CS(=O)(=O)O ?
> 60 min

----------
assay: Half-life in rat small intestine homogenate.
Assay type: ADME, organism-based
readout kind: half-life (min)
One number for each entry, in min.

Could you share which half-life value was measured for C=CCN(CC(=O)OCC)C(=O)/C(C)=C/c1ccc(C(=O)Oc2ccc(C(=N)N)cc2)cc1.CS(=O)(=O)O ?
11

----------
assay: Half-life in rat plasma.
Assay type: ADME, organism-based
I'd appreciate it if you could supply half-life values for the items below.

>>> val("C=CCN(CC(=O)O)C(=O)/C(C)=C/c1ccc(C(=O)Oc2ccc(C(=N)N)cc2)cc1.CS(=O)(=O)O")
"> 60 min"

Could you share which half-life value was measured for C=CCN(CC(=O)OCC)C(=O)/C(C)=C/c1ccc(C(=O)Oc2ccc(C(=N)N)cc2)cc1.CS(=O)(=O)O ?
< 1 min
